# ASSAY_PROCEDURE: Pharmacokinetic evaluation of liquid bevirimat dosage forms, oral gavage, male Cynomolgus monkeys
# TEST_PARAMETERS: male, cynomolgus monkey, in vivo, po, 50 mg, AUCall, 12.5 mg FAE/mL in 10% HPβCD, 50 mg FAE/monkey oral gavage; monkeys 186,116,120,AVG
ENDPOINT_LABEL: AUC (µg·h/mL)
Output spec: scalar in µg·h/mL, unitless text.

Noted for C=C(C)[C@@H]1CC[C@]2(C(=O)O)CC[C@]3(C)[C@H](CC[C@@H]4[C@@]5(C)CC[C@H](OC(=O)CC(C)(C)C(=O)O)C(C)(C)[C@@H]5CC[C@]43C)[C@@H]12 [Bevirimat] : its AUC reads 348

###

# ASSAY_PROCEDURE: Pharmacokinetic evaluation of bevirimat HPβCD formulation, intravenous, male Cynomolgus monkeys
# TEST_PARAMETERS: male, cynomolgus monkey, in vivo, iv, 10 mg FAE/monkey, Plasma concentration, 24 hr; 2.5 mg FAE/mL in 10% HPβCD+3% Mannitol in water, 10 mg FAE/monkey intravenous injection; monkeys 115,116,120,AVG
ENDPOINT_LABEL: concentration at 24 hr (ng/mL)
Output spec: scalar in ng/mL, unitless text.

Noted for C=C(C)[C@@H]1CC[C@]2(C(=O)O)CC[C@]3(C)[C@H](CC[C@@H]4[C@@]5(C)CC[C@H](OC(=O)CC(C)(C)C(=O)O)C(C)(C)[C@@H]5CC[C@]43C)[C@@H]12 : its concentration at 24 hr reads 347

###

# ASSAY_PROCEDURE: Pharmacokinetic evaluation of bevirimat HPβCD formulation, intravenous, male Cynomolgus monkeys
# TEST_PARAMETERS: male, cynomolgus monkey, plasma, iv, 10 mg
ENDPOINT_LABEL: Tmax (h)
Output spec: scalar in h, unitless text.

Noted for C=C(C)[C@@H]1CC[C@]2(C(=O)O)CC[C@]3(C)[C@H](CC[C@@H]4[C@@]5(C)CC[C@H](OC(=O)CC(C)(C)C(=O)O)C(C)(C)[C@@H]5CC[C@]43C)[C@@H]12 : its Tmax reads 0

###

# ASSAY_PROCEDURE: Pharmacokinetic evaluation of liquid bevirimat dosage forms, oral gavage, male Cynomolgus monkeys
# TEST_PARAMETERS: male, cynomolgus monkey, in vivo, po, 50 mg, Cmax, 50 mg/monkey, PG/glycerin/Vitamin ETPGS/ethanol formulation; individual monkey
ENDPOINT_LABEL: Cmax (µg/mL)
Output spec: scalar in µg/mL, unitless text.

Noted for C=C(C)[C@@H]1CC[C@]2(C(=O)O)CC[C@]3(C)[C@H](CC[C@@H]4[C@@]5(C)CC[C@H](OC(=O)CC(C)(C)C(=O)O)C(C)(C)[C@@H]5CC[C@]43C)[C@@H]12 [Bevirimat] : its Cmax reads 58.9

###

# ASSAY_PROCEDURE: Pharmacokinetic evaluation of liquid bevirimat dosage forms, oral gavage, male Cynomolgus monkeys
# TEST_PARAMETERS: male, cynomolgus monkey, in vivo, po, 200 mg, Cmax, 200 mg/monkey, PG/glycerin/Vitamin ETPGS/ethanol formulation; individual monkey
ENDPOINT_LABEL: Cmax (µg/mL)
Output spec: scalar in µg/mL, unitless text.

Noted for C=C(C)[C@@H]1CC[C@]2(C(=O)O)CC[C@]3(C)[C@H](CC[C@@H]4[C@@]5(C)CC[C@H](OC(=O)CC(C)(C)C(=O)O)C(C)(C)[C@@H]5CC[C@]43C)[C@@H]12 : its Cmax reads 202

###

# ASSAY_PROCEDURE: Pharmacokinetic evaluation of liquid bevirimat dosage forms, oral gavage, male Cynomolgus monkeys
# TEST_PARAMETERS: male, cynomolgus monkey, in vivo, po, 50 mg/monkey, Plasma Concentration, PG/glycerin/Vitamin ETPGS/Tween80/Plasdone C15 formulation; 2.0 hr; AVG
ENDPOINT_LABEL: concentration at 2 h (µg/mL)
Output spec: scalar in µg/mL, unitless text.

Noted for C=C(C)[C@@H]1CC[C@]2(C(=O)O)CC[C@]3(C)[C@H](CC[C@@H]4[C@@]5(C)CC[C@H](OC(=O)CC(C)(C)C(=O)O)C(C)(C)[C@@H]5CC[C@]43C)[C@@H]12 : its concentration at 2 h reads 61.6

###

# ASSAY_PROCEDURE: Pharmacokinetic evaluation of bevirimat HPβCD formulation, intravenous, male Cynomolgus monkeys
# TEST_PARAMETERS: male, cynomolgus monkey, in vivo, iv, 10 mg FAE/monkey, Plasma concentration, 0.033 hr; 2.5 mg FAE/mL in 10% HPβCD+3% Mannitol in water, 10 mg FAE/monkey intravenous injection; monkeys 115,116,120,AVG
ENDPOINT_LABEL: concentration at 0.033 hr (µg/mL)
Output spec: scalar in µg/mL, unitless text.

Noted for C=C(C)[C@@H]1CC[C@]2(C(=O)O)CC[C@]3(C)[C@H](CC[C@@H]4[C@@]5(C)CC[C@H](OC(=O)CC(C)(C)C(=O)O)C(C)(C)[C@@H]5CC[C@]43C)[C@@H]12 : its concentration at 0.033 hr reads 50.6

###

# ASSAY_PROCEDURE: Pharmacokinetic evaluation of liquid bevirimat dosage forms, oral gavage, male Cynomolgus monkeys
# TEST_PARAMETERS: male, cynomolgus monkey, in vivo, po, 50 mg FAE, Plasma concentration, 6.0 hr; 12.5 mg FAE/mL in 15% Ethanol, 30% PG, 10% Glycerin, 50 mg FAE oral gavage; monkeys 117,118,119,AVG
ENDPOINT_LABEL: concentration at 6 hr (ng/mL)
Output spec: scalar in ng/mL, unitless text.

Noted for C=C(C)[C@@H]1CC[C@]2(C(=O)O)CC[C@]3(C)[C@H](CC[C@@H]4[C@@]5(C)CC[C@H](OC(=O)CC(C)(C)C(=O)O)C(C)(C)[C@@H]5CC[C@]43C)[C@@H]12 [Bevirimat] : its concentration at 6 hr reads 44700

###

# ASSAY_PROCEDURE: Pharmacokinetic evaluation of liquid bevirimat dosage forms, oral gavage, male Cynomolgus monkeys
# TEST_PARAMETERS: male, cynomolgus monkey, in vivo, po, 50 mg/monkey, Plasma Concentration, PG/glycerin/Vitamin ETPGS/Tween80/Plasdone C15 formulation; 24 hr; AVG
ENDPOINT_LABEL: concentration at 24 h (ng/mL)
Output spec: scalar in ng/mL, unitless text.

Noted for C=C(C)[C@@H]1CC[C@]2(C(=O)O)CC[C@]3(C)[C@H](CC[C@@H]4[C@@]5(C)CC[C@H](OC(=O)CC(C)(C)C(=O)O)C(C)(C)[C@@H]5CC[C@]43C)[C@@H]12 [Bevirimat] : its concentration at 24 h reads 1270

###

# ASSAY_PROCEDURE: Pharmacokinetic evaluation of liquid bevirimat dosage forms, oral gavage, male Cynomolgus monkeys
# TEST_PARAMETERS: male, cynomolgus monkey, in vivo, po, 50 mg/monkey, Plasma Concentration, PG/glycerin/Vitamin ETPGS/Tween80/Plasdone C15 formulation; 0.25 hr; individual monkey
# Source text: Six male Cynomolgus monkeys having an initial body weight of about 3.5 to about 4.5 kg are allowed 7 days to acclimate to their individual housing units. Monkeys are supplied with water and a commercial diet ad libitum prior to the study initiation. Food is withheld from the monkeys for a minimum of twelve hours before the study and during the study until four hours postdose when food is returned. Water is supplied ad libitum. […]
ENDPOINT_LABEL: concentration at 0.25 h

Noted for C=C(C)[C@@H]1CC[C@]2(C(=O)O)CC[C@]3(C)[C@H](CC[C@@H]4[C@@]5(C)CC[C@H](OC(=O)CC(C)(C)C(=O)O)C(C)(C)[C@@H]5CC[C@]43C)[C@@H]12 : its concentration at 0.25 h reads 69.8 ng/mL

###

# ASSAY_PROCEDURE: Pharmacokinetic evaluation of liquid bevirimat dosage forms, oral gavage, male Cynomolgus monkeys
# TEST_PARAMETERS: male, cynomolgus monkey, in vivo, po, 50 mg FAE/monkey, Plasma concentration, 2.0 hr; 12.5 mg FAE/mL in 10% HPβCD, 50 mg FAE/monkey oral gavage; monkeys 186,116,120,AVG
ENDPOINT_LABEL: concentration at 2 hr (µg/mL)
Output spec: scalar in µg/mL, unitless text.

Noted for C=C(C)[C@@H]1CC[C@]2(C(=O)O)CC[C@]3(C)[C@H](CC[C@@H]4[C@@]5(C)CC[C@H](OC(=O)CC(C)(C)C(=O)O)C(C)(C)[C@@H]5CC[C@]43C)[C@@H]12 [Bevirimat] : its concentration at 2 hr reads 59.2

###

# ASSAY_PROCEDURE: Pharmacokinetic evaluation of liquid bevirimat dosage forms, oral gavage, male Cynomolgus monkeys
# TEST_PARAMETERS: male, cynomolgus monkey, in vivo, po, 50 mg, t1/2, oral, 50 mg/monkey, PG/glycerin/Vitamin ETPGS/ethanol formulation; AVG
ENDPOINT_LABEL: half-life

Noted for C=C(C)[C@@H]1CC[C@]2(C(=O)O)CC[C@]3(C)[C@H](CC[C@@H]4[C@@]5(C)CC[C@H](OC(=O)CC(C)(C)C(=O)O)C(C)(C)[C@@H]5CC[C@]43C)[C@@H]12 : its half-life reads 6.9 h
